experiment: in vitro; settings: rat, microsomes
Description: Metabolic stability in rat liver microsomes assessed as parent compound remaining at 10 uM measured after 30 mins relative to control
recorded-metric: remaining at 0.5 h, 10 µM

[[record]]
compound = "CNC(=O)c1cnc2[nH]ccc2c1N[C@@H]1CCN(Cc2ccc(Cl)cc2)[C@H](C)C1 (relative stereo)"
recorded_metric = "remaining at 0.5 h, 10 µM"
experimental_value = "11.6%"


* * *

biological target: Non-receptor tyrosine-protein kinase TYK2 (Homo sapiens)
Sequence (P29597 whole entry): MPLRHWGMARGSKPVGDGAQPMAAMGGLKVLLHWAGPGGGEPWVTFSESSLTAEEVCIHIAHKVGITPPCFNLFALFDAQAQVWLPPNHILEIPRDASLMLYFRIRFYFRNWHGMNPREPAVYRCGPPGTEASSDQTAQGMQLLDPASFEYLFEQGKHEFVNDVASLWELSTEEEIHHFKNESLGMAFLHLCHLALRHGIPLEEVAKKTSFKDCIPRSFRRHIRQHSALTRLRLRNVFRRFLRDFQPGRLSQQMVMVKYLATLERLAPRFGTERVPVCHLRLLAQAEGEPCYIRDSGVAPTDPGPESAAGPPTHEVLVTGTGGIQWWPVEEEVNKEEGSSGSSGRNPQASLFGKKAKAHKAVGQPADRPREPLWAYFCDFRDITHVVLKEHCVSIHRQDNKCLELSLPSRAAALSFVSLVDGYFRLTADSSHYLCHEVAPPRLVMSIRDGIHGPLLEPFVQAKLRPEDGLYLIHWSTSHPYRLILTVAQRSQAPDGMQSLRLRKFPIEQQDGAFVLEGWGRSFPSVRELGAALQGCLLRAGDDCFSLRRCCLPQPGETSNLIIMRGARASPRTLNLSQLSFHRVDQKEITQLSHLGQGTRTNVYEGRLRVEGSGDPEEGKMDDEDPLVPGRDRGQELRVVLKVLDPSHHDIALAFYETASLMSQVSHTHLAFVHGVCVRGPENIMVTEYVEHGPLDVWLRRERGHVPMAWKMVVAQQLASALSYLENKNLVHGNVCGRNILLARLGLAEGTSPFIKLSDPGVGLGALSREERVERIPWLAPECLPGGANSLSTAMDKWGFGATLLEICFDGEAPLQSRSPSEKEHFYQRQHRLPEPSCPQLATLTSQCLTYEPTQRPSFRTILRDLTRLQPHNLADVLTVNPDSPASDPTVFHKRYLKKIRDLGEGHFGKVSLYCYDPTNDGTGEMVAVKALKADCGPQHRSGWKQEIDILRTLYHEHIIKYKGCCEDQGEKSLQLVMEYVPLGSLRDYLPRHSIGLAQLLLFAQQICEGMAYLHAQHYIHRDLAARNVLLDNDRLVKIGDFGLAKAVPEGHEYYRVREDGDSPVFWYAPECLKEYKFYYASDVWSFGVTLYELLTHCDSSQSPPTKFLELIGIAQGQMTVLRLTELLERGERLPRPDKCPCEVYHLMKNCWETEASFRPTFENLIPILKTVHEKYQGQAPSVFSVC
recorded-metric: IC50 (nM)

[[record]]
molecule = "CNC(=O)c1cnc2[nH]ccc2c1NC1CCN(Cc2ccccc2OC)CC1"
result_units = "nM"
relation_operator = "="
experimental_value = 4180

[[record]]
molecule = "C[C@@H]1C[C@H](Nc2c(C(N)=O)cnc3[nH]ccc23)CCN1Cc1cccc(Cl)c1 (relative stereo)"
result_units = "nM"
relation_operator = "="
experimental_value = 48.4

[[record]]
molecule = "CNC(=O)c1cnc2[nH]ccc2c1NC1CCN(Cc2cccc(C#N)c2)CC1"
result_units = "nM"
relation_operator = "="
experimental_value = 710

[[record]]
molecule = "COc1cccc(CN2CCC(Nc3c(C(=O)NC4CCCC4)cnc4[nH]ccc34)CC2)c1"
result_units = "nM"
relation_operator = ">"
experimental_value = 10000


* * *

target: CYP2D6 (Homo sapiens, UniProt P10635); assay: in vitro
Sequence (P10635 whole entry): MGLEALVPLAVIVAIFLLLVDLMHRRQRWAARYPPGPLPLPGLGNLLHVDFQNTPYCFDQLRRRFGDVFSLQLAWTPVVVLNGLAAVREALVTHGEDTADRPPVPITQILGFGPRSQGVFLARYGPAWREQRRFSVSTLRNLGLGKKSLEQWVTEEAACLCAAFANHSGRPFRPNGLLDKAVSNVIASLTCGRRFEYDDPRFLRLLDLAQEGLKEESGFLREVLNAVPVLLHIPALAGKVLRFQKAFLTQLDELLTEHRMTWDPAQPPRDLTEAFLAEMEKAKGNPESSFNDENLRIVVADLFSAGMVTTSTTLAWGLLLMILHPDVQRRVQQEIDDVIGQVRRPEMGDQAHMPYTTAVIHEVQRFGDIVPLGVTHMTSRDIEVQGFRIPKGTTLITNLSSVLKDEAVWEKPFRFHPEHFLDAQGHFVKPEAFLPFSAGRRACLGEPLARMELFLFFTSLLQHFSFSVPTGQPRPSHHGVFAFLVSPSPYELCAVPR
Description: Inhibition of CYP2D6 (unknown origin) at 10 uM relative to control
recorded-metric: inhibition at 10 µM (%)

[[record]]
compound = "CNC(=O)c1cnc2[nH]ccc2c1N[C@@H]1CCN(Cc2ccc(Cl)cc2)[C@H](C)C1 (relative stereo)"
measured_target = "CYP2D6 (Homo sapiens, UniProt P10635)"
experimental_value = 77.1


* * *

Notes on IC50 obtained with Tyrosine-protein kinase JAK2 (Homo sapiens, UniProt O60674).
Sequence (O60674 whole entry): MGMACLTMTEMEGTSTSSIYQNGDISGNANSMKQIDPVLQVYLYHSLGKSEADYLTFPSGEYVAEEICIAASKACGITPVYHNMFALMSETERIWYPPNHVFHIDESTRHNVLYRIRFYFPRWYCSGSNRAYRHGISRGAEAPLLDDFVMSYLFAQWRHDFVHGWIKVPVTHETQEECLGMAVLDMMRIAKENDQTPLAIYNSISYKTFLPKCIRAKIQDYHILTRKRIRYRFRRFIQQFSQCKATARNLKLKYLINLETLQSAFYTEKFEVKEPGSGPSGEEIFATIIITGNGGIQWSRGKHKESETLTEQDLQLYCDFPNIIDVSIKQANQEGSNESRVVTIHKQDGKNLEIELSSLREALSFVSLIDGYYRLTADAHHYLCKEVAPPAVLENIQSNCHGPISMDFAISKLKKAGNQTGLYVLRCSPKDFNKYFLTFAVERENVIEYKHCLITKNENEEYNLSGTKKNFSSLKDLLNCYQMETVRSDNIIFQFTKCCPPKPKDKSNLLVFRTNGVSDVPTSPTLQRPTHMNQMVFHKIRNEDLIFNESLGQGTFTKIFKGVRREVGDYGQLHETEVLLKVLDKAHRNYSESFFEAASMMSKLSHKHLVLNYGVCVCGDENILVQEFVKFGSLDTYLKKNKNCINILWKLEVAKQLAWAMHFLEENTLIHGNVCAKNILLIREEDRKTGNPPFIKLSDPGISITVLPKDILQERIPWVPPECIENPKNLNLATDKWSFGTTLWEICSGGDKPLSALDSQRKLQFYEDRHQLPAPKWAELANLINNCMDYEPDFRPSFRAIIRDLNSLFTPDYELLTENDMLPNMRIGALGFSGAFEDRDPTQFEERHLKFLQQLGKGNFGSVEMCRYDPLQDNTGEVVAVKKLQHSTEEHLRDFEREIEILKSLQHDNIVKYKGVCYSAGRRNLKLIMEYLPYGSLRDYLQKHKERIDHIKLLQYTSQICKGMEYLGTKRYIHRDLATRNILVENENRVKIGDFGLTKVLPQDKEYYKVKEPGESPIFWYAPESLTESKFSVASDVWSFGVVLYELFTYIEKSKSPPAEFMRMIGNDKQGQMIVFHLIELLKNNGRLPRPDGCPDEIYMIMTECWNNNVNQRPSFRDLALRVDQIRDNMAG
recorded-metric: IC50 (nM)

[[record]]
molecule = "CNC(=O)c1cnc2[nH]ccc2c1NC1CCN(Cc2ccc(OC)c(OC)c2)CC1"
measured_target = "Tyrosine-protein kinase JAK2 (Homo sapiens, UniProt O60674)"
recorded_metric = "IC50"
result_units = "nM"
relation_operator = ">"
experimental_value = 10000

[[record]]
molecule = "CNC(=O)c1cnc2[nH]ccc2c1NC1CCN(Cc2ccccc2OC)CC1"
measured_target = "Tyrosine-protein kinase JAK2 (Homo sapiens, UniProt O60674)"
recorded_metric = "IC50"
result_units = "nM"
relation_operator = "="
experimental_value = 7060

[[record]]
molecule = "C[C@@H]1C[C@H](Nc2c(C(N)=O)cnc3[nH]ccc23)CCN1Cc1cccc(Cl)c1 (relative stereo)"
measured_target = "Tyrosine-protein kinase JAK2 (Homo sapiens, UniProt O60674)"
recorded_metric = "IC50"
result_units = "nM"
relation_operator = "="
experimental_value = 93.8

[[record]]
molecule = "O=C(NC1CC1)c1cnc2[nH]ccc2c1NC1CCN(Cc2ccccc2)CC1"
measured_target = "Tyrosine-protein kinase JAK2 (Homo sapiens, UniProt O60674)"
recorded_metric = "IC50"
result_units = "nM"
relation_operator = "="
experimental_value = 232

[[record]]
molecule = "CNC(=O)c1cnc2[nH]ccc2c1NC1CCCN(Cc2ccccc2)CC1 (stereo unspecified)"
measured_target = "Tyrosine-protein kinase JAK2 (Homo sapiens, UniProt O60674)"
recorded_metric = "IC50"
result_units = "nM"
relation_operator = "="
experimental_value = 89.3

[[record]]
molecule = "COc1cccc(CN2CC[C@@H](Nc3c(C(N)=O)cnc4[nH]ccc34)C[C@H]2C)c1 (relative stereo)"
measured_target = "Tyrosine-protein kinase JAK2 (Homo sapiens, UniProt O60674)"
recorded_metric = "IC50"
result_units = "nM"
relation_operator = "="
experimental_value = 57.6


* * *

assay: in vitro; details: human, plasma
Description: Stability in human plasma assessed as compound remaining at 2 uM measured after 2 hrs relative to control
recorded-metric: remaining at 2 h, 2 µM

[[record]]
compound = "CNC(=O)c1cnc2[nH]ccc2c1N[C@@H]1CCN(Cc2ccc(Cl)cc2)[C@H](C)C1 (relative stereo)"
recorded_metric = "remaining at 2 h, 2 µM"
experimental_value = "> 100%"


* * *

molecular target: CYP2C9 (Homo sapiens, UniProt P11712); assay: in vitro
Description: Inhibition of CYP2C9 (unknown origin) at 10 uM relative to control
recorded-metric: inhibition at 10 µM (%)

[[record]]
molecule = "CNC(=O)c1cnc2[nH]ccc2c1N[C@@H]1CCN(Cc2ccc(Cl)cc2)[C@H](C)C1 (relative stereo)"
result_units = "%"
experimental_value = 70


* * *

biological target: Vascular endothelial growth factor receptor 1 (Homo sapiens)
recorded-metric: IC50 (nM)

[[record]]
compound = "CNC(=O)c1cnc2[nH]ccc2c1N[C@@H]1CCN(Cc2ccc(Cl)cc2)[C@H](C)C1 (relative stereo)"
experimental_value = 106


* * *

assay: in vitro; details: dog, MDCK
Description: Permeability of compound across apical to basolateral side in MDCK cells at 10 uM
recorded-metric: Papp A→B at 10 µM

[[record]]
molecule = "CNC(=O)c1cnc2[nH]ccc2c1N[C@@H]1CCN(Cc2ccc(Cl)cc2)[C@H](C)C1 (relative stereo)"
recorded_metric = "Papp A→B at 10 µM"
experimental_value = "1.9 ×10⁻⁶ cm/s"


* * *

molecular target: CYP2C19 (Homo sapiens, UniProt P33261); assay: in vitro
Sequence (P33261 whole entry): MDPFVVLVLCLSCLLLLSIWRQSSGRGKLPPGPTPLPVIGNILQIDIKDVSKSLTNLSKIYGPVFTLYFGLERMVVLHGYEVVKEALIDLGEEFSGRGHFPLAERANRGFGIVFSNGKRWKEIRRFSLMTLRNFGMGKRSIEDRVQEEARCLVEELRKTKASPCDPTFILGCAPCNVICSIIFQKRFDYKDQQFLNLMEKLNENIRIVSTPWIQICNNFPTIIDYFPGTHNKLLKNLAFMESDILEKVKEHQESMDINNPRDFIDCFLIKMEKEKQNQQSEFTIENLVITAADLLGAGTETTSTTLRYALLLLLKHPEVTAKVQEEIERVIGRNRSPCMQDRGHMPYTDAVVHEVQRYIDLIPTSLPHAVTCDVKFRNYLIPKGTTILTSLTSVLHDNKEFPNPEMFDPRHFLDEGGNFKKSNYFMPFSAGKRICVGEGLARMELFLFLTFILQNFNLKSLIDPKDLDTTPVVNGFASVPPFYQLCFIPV
Description: Inhibition of CYP2C19 (unknown origin) at 10 uM relative to control
recorded-metric: inhibition at 10 µM (%)

[[record]]
compound = "CNC(=O)c1cnc2[nH]ccc2c1N[C@@H]1CCN(Cc2ccc(Cl)cc2)[C@H](C)C1 (relative stereo)"
recorded_metric = "inhibition at 10 µM"
experimental_value = 75.7


* * *

test: in vitro; conditions: human, microsomes
Description: Metabolic stability in human liver microsomes assessed as parent compound remaining at 10 uM measured after 30 mins relative to control
recorded-metric: remaining at 0.5 h, 10 µM (%)

[[record]]
compound = "CNC(=O)c1cnc2[nH]ccc2c1N[C@@H]1CCN(Cc2ccc(Cl)cc2)[C@H](C)C1 (relative stereo)"
result_units = "%"
experimental_value = 80.6


* * *

assay: in vitro; conditions: rat, plasma
Description: Stability in rat plasma assessed as compound remaining at 2 uM measured after 2 hrs relative to control
recorded-metric: remaining at 2 h, 2 µM (%)

[[record]]
compound = "CNC(=O)c1cnc2[nH]ccc2c1N[C@@H]1CCN(Cc2ccc(Cl)cc2)[C@H](C)C1 (relative stereo)"
recorded_metric = "remaining at 2 h, 2 µM"
experimental_value = 92.6


* * *

target: CYP1A2 (Homo sapiens); experiment: in vitro
Sequence (P05177 whole entry): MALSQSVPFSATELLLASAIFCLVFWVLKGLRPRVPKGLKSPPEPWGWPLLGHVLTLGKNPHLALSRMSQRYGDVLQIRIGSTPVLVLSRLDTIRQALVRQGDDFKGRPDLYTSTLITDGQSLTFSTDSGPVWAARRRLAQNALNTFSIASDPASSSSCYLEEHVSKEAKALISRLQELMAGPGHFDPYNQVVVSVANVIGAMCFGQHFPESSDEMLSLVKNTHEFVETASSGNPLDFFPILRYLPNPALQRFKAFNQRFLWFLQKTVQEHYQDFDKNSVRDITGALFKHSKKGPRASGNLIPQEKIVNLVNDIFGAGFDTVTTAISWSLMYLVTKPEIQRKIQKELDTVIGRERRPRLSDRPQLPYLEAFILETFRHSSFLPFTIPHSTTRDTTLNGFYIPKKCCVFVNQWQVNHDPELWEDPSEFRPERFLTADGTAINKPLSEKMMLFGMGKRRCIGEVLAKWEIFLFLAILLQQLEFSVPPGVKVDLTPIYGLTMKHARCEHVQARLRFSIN
Description: Inhibition of CYP1A2 (unknown origin) at 10 uM relative to control
recorded-metric: inhibition at 10 µM (%)

[[record]]
molecule = "CNC(=O)c1cnc2[nH]ccc2c1N[C@@H]1CCN(Cc2ccc(Cl)cc2)[C@H](C)C1 (relative stereo)"
experimental_value = 74.8


* * *

molecular target: Tyrosine-protein kinase JAK1 (Homo sapiens, UniProt P23458)
Sequence (P23458 whole entry): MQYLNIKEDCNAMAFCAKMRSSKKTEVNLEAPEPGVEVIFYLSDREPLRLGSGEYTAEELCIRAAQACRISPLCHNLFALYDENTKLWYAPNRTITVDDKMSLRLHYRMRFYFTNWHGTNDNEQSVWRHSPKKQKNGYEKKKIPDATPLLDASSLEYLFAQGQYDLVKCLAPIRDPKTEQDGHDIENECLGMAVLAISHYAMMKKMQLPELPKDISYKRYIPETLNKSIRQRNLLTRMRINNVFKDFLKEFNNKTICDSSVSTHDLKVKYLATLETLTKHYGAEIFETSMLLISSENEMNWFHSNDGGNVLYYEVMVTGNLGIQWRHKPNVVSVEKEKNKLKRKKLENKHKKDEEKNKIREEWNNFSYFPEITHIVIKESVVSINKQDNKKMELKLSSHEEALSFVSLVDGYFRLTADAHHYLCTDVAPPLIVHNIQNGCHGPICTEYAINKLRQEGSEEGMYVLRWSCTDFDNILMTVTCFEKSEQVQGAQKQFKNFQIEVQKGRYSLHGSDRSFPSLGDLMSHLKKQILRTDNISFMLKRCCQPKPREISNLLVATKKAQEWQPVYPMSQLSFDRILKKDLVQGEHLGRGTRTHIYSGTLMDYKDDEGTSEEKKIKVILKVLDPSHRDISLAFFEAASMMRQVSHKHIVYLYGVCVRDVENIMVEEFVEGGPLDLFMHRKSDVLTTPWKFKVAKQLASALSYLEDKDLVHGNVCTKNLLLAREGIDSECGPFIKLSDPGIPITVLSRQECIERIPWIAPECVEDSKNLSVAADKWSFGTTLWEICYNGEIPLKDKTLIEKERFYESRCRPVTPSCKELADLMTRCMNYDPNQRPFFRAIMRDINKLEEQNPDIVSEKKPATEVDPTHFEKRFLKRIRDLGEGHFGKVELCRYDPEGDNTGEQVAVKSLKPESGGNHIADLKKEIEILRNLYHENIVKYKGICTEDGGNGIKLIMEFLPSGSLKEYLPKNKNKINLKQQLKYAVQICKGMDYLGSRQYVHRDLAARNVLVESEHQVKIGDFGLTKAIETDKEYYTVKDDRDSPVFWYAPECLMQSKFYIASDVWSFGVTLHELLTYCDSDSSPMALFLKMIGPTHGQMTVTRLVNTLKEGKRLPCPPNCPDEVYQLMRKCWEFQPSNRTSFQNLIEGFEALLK
pIC50: −log10 of the molar value.
recorded-metric: pIC50

[[record]]
compound = "O=C(NC1CCCC1)c1cnc2[nH]ccc2c1NC1CCN(Cc2ccccc2)CC1"
measured_target = "Tyrosine-protein kinase JAK1 (Homo sapiens, UniProt P23458)"
recorded_metric = "pIC50"
relation_operator = "<"
experimental_value = 5.00

[[record]]
compound = "CNC(=O)c1cnc2[nH]ccc2c1NC1CCN(c2ccccc2)CC1"
measured_target = "Tyrosine-protein kinase JAK1 (Homo sapiens, UniProt P23458)"
recorded_metric = "pIC50"
relation_operator = "="
experimental_value = 6.80

[[record]]
compound = "CNC(=O)c1cnc2[nH]ccc2c1NC1CCN(Cc2ccccc2OC)CC1"
measured_target = "Tyrosine-protein kinase JAK1 (Homo sapiens, UniProt P23458)"
recorded_metric = "pIC50"
relation_operator = "="
experimental_value = 6.39

[[record]]
compound = "CNC(=O)c1cnc2[nH]ccc2c1NC1CCCN(Cc2cccc(OC)c2)CC1 (configuration not stated)"
measured_target = "Tyrosine-protein kinase JAK1 (Homo sapiens, UniProt P23458)"
recorded_metric = "pIC50"
relation_operator = "="
experimental_value = 8.06

[[record]]
compound = "CNC(=O)c1cnc2[nH]ccc2c1NC1CCN(Cc2ccc(OC)c(OC)c2)CC1"
measured_target = "Tyrosine-protein kinase JAK1 (Homo sapiens, UniProt P23458)"
recorded_metric = "pIC50"
relation_operator = "="
experimental_value = 5.08

[[record]]
compound = "O=C(NC1CC1)c1cnc2[nH]ccc2c1NC1CCN(Cc2ccccc2)CC1"
measured_target = "Tyrosine-protein kinase JAK1 (Homo sapiens, UniProt P23458)"
recorded_metric = "pIC50"
relation_operator = "="
experimental_value = 6.94

[[record]]
compound = "CNC(=O)c1cnc2[nH]ccc2c1NC1CCN(Cc2ccc(OC)cc2)CC1"
measured_target = "Tyrosine-protein kinase JAK1 (Homo sapiens, UniProt P23458)"
recorded_metric = "pIC50"
relation_operator = "="
experimental_value = 6.69


* * *

assay: in vitro; conditions: human, lx2
recorded-metric: GI50 at 48 h

[[record]]
compound = "CNC(=O)c1cnc2[nH]ccc2c1N[C@@H]1CCN(Cc2ccc(Cl)cc2)[C@H](C)C1 (relative stereo)"
experimental_value = "> 10 µM"


* * *

Biological target: UniProt P52333
Sequence (whole entry): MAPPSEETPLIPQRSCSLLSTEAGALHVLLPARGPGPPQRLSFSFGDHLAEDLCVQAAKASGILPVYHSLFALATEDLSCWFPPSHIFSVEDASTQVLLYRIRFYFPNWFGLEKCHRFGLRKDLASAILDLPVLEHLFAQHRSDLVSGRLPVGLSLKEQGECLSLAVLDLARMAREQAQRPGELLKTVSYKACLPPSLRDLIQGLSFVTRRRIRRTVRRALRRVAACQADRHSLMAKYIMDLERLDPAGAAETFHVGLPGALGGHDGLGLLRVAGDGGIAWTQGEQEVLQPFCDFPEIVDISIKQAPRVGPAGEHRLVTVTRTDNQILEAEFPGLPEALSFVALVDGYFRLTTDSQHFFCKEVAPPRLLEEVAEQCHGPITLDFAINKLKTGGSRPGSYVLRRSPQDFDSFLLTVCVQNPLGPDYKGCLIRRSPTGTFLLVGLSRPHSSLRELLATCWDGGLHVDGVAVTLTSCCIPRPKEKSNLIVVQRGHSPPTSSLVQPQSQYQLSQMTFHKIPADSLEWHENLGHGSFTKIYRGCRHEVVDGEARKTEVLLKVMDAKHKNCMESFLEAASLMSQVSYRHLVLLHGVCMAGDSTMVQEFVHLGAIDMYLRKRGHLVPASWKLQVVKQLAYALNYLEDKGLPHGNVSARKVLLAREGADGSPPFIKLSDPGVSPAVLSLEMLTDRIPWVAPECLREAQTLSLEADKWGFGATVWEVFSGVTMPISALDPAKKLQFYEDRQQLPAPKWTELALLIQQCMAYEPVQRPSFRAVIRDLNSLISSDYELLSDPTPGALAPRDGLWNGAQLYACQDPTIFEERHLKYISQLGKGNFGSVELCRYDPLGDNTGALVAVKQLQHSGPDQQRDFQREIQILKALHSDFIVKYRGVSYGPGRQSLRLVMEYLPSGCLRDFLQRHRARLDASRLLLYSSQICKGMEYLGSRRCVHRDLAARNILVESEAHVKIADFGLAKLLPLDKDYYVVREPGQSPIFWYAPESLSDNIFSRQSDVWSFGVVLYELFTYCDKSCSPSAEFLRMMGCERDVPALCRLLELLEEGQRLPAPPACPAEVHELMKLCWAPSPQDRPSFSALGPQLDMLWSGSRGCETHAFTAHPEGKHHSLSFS
Conditions: BaF3
Description: Inhibition of JAK3 (unknown origin) transfected in mouse BAF3 cells assessed as cell growth inhibition incubated for 72 hrs by CCK8 assay
recorded-metric: GI50 (µM)

[[record]]
molecule = "CC(=O)Nc1cc(Oc2ccc3c(c2)CCN3C(=O)Nc2ccc(CN3CCN(C)CC3)c(C(F)(F)F)c2)ncn1"
measured_target = "UniProt P52333"
relation_operator = "="
experimental_value = 0.451

[[record]]
molecule = "CNC(=O)c1cnc2[nH]ccc2c1NC1CC2CCC(C1)N2Cc1ccc(Cl)cc1 (stereo not drawn)"
measured_target = "UniProt P52333"
relation_operator = "="
experimental_value = 3.9

[[record]]
molecule = "CNC(=O)c1cnc2[nH]ccc2c1N[C@@H]1CCN(Cc2ccc(Cl)cc2)[C@H](C)C1 (relative stereo)"
measured_target = "UniProt P52333"
relation_operator = "="
experimental_value = 1.36

[[record]]
molecule = "CNC(=O)c1cnc2[nH]ccc2c1N[C@@H]1CCN(Cc2ccc(Cl)cc2)[C@H](C)C1"
measured_target = "UniProt P52333"
relation_operator = ">"
experimental_value = 10

[[record]]
molecule = "CNC(=O)c1cnc2[nH]ccc2c1N[C@H]1CCN(Cc2ccc(Cl)cc2)[C@@H](C)C1"
measured_target = "UniProt P52333"
relation_operator = "="
experimental_value = 1.14

[[record]]
molecule = "CNC(=O)c1cnc2[nH]ccc2c1NC1CCCN(Cc2cccc(Cl)c2)CC1 (stereo not drawn)"
measured_target = "UniProt P52333"
relation_operator = ">"
experimental_value = 10

[[record]]
molecule = "O=C(Nc1nc2cccc(-c3ccc(CN4CCS(=O)(=O)CC4)cc3)n2n1)C1CC1"
measured_target = "UniProt P52333"
relation_operator = ">"
experimental_value = 10

[[record]]
molecule = "CNC(=O)c1cnc2[nH]ccc2c1N[C@@H]1CCN(Cc2cccc(Cl)c2)[C@@H](C)C1 (relative stereo)"
measured_target = "UniProt P52333"
relation_operator = ">"
experimental_value = 10

